System: HEK293T (UBE3A T485A transfected, BAR Wnt reporter)
ASSAY_EXPLANATION: Wnt reporter firefly/Renilla luciferase ratio relative to plate median (fold (linear ratio)); higher = more Wnt/beta-catenin reporter activation
TEST_PARAMETERS: concentration: 10 uM; 24 h
In all, about 1,100 compounds were measured (“Wnt reporter firefly/Renilla luciferase ratio relative to plate median”: median about 1.1, highest 2% from about 1.6 on). The full list was thinned out, with the highest values kept by preference.
PROPERTY_LABEL: Wnt reporter firefly/Renilla luciferase ratio
Numbers only.

CC(C)=CCC/C(C)=C/CO [Geraniol]: 1.15
c1ccc(C(O[C@@H]2CCCN(CCc3ccc4c(c3)OCO4)C2)c2ccccc2)cc1 [Zamifenacin]: 0.996
CC(C)=CCCC(C)=CC=O [3,7-Dimethyl-2,6-octadienal]: 1.03
Cc1cc(F)ccc1-c1cc(N2CC[C@@H](O)[C@H]2CO)ncc1N(C)C(=O)C(C)(C)c1cc(C(F)(F)F)cc(C(F)(F)F)c1: 1.16

Please state, for each entry, its recorded Wnt reporter firefly/Renilla luciferase ratio.
1. OCC(CO)(CO)CO [Pentaerythritol]
2. CCCCC(CC)CO (stereo not drawn) [2-Ethyl-1-hexanol]
3. c1ccc(Nc2ccccc2)cc1 [Diphenylamine]
4. CC(C(C)N1CC(=O)NC(=O)C1)N1CC(=O)NC(=O)C1 (stereo not drawn)
5. CS(=O)(=O)c1ccc([C@@H](C[C@H]2CCC(=O)C2)C(=O)Nc2cnccn2)cc1Cl [Piragliatin]
6. CC(C)CCCCCCOC(=O)c1ccc(C(=O)OCCCCCCC(C)C)c(C(=O)OCCCCCCC(C)C)c1 [Triisononyl trimellitate]
7. CC(C)=CCC/C(C)=C\CO [(2Z)-3,7-Dimethylocta-2,6-dien-1-ol]

Given back:
[1.13, 1.62, 1.18, 1.33, 1.02, 1.18, 1.5]

====

Test system: HEK293T (UBE3A T485A transfected, BAR Wnt reporter)
ASSAY_EXPLANATION: Wnt reporter firefly/Renilla luciferase ratio relative to plate median (fold (linear ratio)); higher = more Wnt/beta-catenin reporter activation
TEST_PARAMETERS: concentration: 1 uM; 24 h
The full ranking holds about 1,100 compounds; the median of “Wnt reporter firefly/Renilla luciferase ratio relative to plate median” is about 1.1, and the highest 2% start at about 1.6. The sample holds the highest values, similar compounds and a random draw of the others, so the mix is not that of the screen.
Provide the reported Wnt reporter firefly/Renilla luciferase ratio of each item.
One number for each entry.

CCCCCCC(CCCCCCCCCCC(=O)OCC(COC(C)=O)OC(C)=O)OC(C)=O (stereo unspecified): 1.29
CCOC(=O)C(C)Oc1ccc(Oc2nc3ccc(Cl)cc3o2)cc1 (stereo unspecified): 0.888
CCCCOC(=O)c1ccccc1 [Butyl benzoate]: 0.911

Please state, for each entry, its recorded Wnt reporter firefly/Renilla luciferase ratio.
1. Oc1ccccc1
2. CCNc1cccc(C)c1
3. CC(C)(O)c1ccc(CNC(=O)c2cccnc2Oc2ccc(F)cc2)cc1
4. CCCCCCC(=O)OCC [Ethyl heptanoate]
5. CC(C)C(=O)OCC(C)(C)C(OC(=O)C(C)C)C(C)C (stereo unspecified) [2,2,4-Trimethyl-1,3-pentanediol diisobutyrate]
6. CN1C(=O)N(c2ccccc2Br)Cc2cnc(Nc3ccc4c(c3)OCC(CO)O4)nc21 (stereo unspecified)
7. C#CCOC(=O)[C@@H](C)Oc1ccc(Oc2ncc(Cl)cc2F)cc1

Given back:
1.28
1.05
1.05
1.05
0.885
0.73
1.14

Please state, for each entry, its recorded Wnt reporter firefly/Renilla luciferase ratio.
1. CS(=O)(=O)O.Cc1cc(CCN2CCN(c3nsc4ccccc34)CC2)cc2c1NC(=O)CC2(C)C
2. C=CC(=C)CCC=C(C)C

Given back:
0.735
0.768

Please state, for each entry, its recorded Wnt reporter firefly/Renilla luciferase ratio.
1. CC(C)=CCCC(C)CCO (stereo unspecified)
2. CC(C(C)N1CC(=O)NC(=O)C1)N1CC(=O)NC(=O)C1 (stereo unspecified)
3. CN(C)[C@@H]1C(O)=C(C(N)=O)C(=O)[C@@]2(O)C(O)=C3C(=O)c4c(O)cccc4[C@@](C)(O)[C@H]3C[C@@H]12
4. Cc1cnc(-c2cnc(NCCNc3ccc(C#N)cn3)nc2-c2ccc(Cl)cc2Cl)[nH]1
5. CCCCOC(=O)[C@@H](C)Oc1ccc(Oc2ccc(C(F)(F)F)cn2)cc1

Given back:
0.904
1.23
1.17
5.86
1.04

Please state, for each entry, its recorded Wnt reporter firefly/Renilla luciferase ratio.
1. c1ccc2c(c1)-c1cccc3c1c-2cc1ccccc13
2. CN(C)[C@@H]1C(O)=C(C(N)=O)C(=O)[C@@]2(O)C(O)=C3C(=O)c4c(O)cccc4[C@@](C)(O)[C@H]3[C@H](O)[C@@H]12.Cl [Oxytetracycline hydrochloride]
3. OCCO
4. OCCNCCO

Given back:
1.22
1.03
1.07
0.992

Please state, for each entry, its recorded Wnt reporter firefly/Renilla luciferase ratio.
1. NCCO
2. CN(C)[C@@H]1C(O)=C(C(N)=O)C(=O)[C@@]2(O)C(O)=C3C(=O)c4c(O)cccc4[C@@](C)(O)[C@H]3[C@H](O)[C@@H]12.O.O [Oxytetracycline dihydrate]
3. CC(=O)OCCOCCOCCOC(C)=O [Triethylene glycol diacetate]
4. COc1ccc(CC(N)C(=O)NC2C(CO)OC(n3cnc4c(N(C)C)ncnc43)C2O)cc1 (stereo unspecified)
5. O=C(O)[C@H](O)[C@@H](O)C(=O)O
6. CC[C@H](C)[C@@H](C(=O)O)n1sc2ccccc2c1=O

Given back:
1: 0.968; 2: 1.22; 3: 1.16; 4: 0.249; 5: 1.29; 6: 0.949

Please state, for each entry, its recorded Wnt reporter firefly/Renilla luciferase ratio.
1. CCCCCCCCCC(=O)O
2. CC(=O)OCCC(C)C [3-Methylbutyl acetate]
3. CCO[Si](CCCNC(N)=O)(OCC)OCC [1-[3-(Triethoxysilyl)propyl]urea]
4. CCCCCOC(C)=O [Pentyl acetate]
5. CCOC(N)=O

Given back:
1. 1.04
2. 0.938
3. 0.853
4. 0.968
5. 0.955

Please state, for each entry, its recorded Wnt reporter firefly/Renilla luciferase ratio.
1. CCCCCCCCO
2. CC(=O)Oc1ccccc1C(=O)O

Given back:
1. 0.949
2. 1.04

Please state, for each entry, its recorded Wnt reporter firefly/Renilla luciferase ratio.
1. CC[C@@H]1C[C@H](N(Cc2cc(C(F)(F)F)cc(C(F)(F)F)c2)C(C)=O)c2cc(C(F)(F)F)ccc2N1C(=O)OC(C)C
2. CCCCCC(=O)O

Given back:
1. 1.26
2. 0.926

Hello, the source for this data is the supplement of paper PMC9254222, in case you need it.
